- systemName: human GPBAR1 receptor (Homo sapiens (Human), UniProt Q8TDU6)
- Sequence (Q8TDU6 whole entry): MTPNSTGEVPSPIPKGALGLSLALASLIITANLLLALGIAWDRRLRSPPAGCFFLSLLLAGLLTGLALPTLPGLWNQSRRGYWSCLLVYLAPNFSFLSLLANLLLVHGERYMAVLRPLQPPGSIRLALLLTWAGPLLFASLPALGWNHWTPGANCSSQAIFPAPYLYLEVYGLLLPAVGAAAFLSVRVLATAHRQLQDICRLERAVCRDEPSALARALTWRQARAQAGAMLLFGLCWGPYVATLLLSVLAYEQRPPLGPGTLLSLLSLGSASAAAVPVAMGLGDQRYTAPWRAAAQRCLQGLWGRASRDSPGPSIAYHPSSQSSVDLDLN
- method: functional cAMP assay in CHO-dhfr(minus) cells expressing human GPBAR1 receptors
- assayConditions: CHO-dhfr(minus) cells expressing human GPBAR1, 30 min at 30° C.
Output True for records whose EC50 is lower than 200 nM, False for records at or above 200 nM.

Example results:
> print(dat)
                                  structure  discretelabel
1  COc1cc(F)ccc1-c1ccncc1N(CC1(C)COC1)C(=O)c1cc(C(F)(F)F)nc(C(F)(F)F)c1          False
2  COc1cc(F)ccc1-c1ccncc1N(CC(N)=O)C(=O)c1cc(C(F)(F)F)cc(S(C)(=O)=O)c1          False
3  CN(C(=O)c1cc(C(F)(F)F)cc(C(F)(F)F)c1)c1cnccc1-c1ccccc1C(F)(F)F          False

Quick check: EC50 of CN(C(=O)c1cc(Br)cc(C(F)(F)F)c1)c1cnccc1-c1ccccc1Cl under 200 nM?
True

Quick check: EC50 of COc1ncccc1-c1ccncc1N(CC(F)(F)F)C(=O)c1cc(C(F)(F)F)cc(S(=O)(=O)N(C)C)c1 under 200 nM?
True

* * *

- systemName: UniProt Q8TDU6
- method: functional cAMP assay in CHO-dhfr(minus) cells expressing human GPBAR1 receptors
- assayConditions: CHO-dhfr(minus) cells expressing human GPBAR1, 30 min at 30° C.
endpoint: EC50
Note: a bare number is incomplete; add the unit.

> print(dat)
                                  structure  testvalue
1  Cc1ccccc1-c1ccncc1N(C)C(=O)c1ccc(C)c(C(F)(F)F)c1     152 nM
2  CNC(=O)CN(C(=O)c1cc(C(F)(F)F)cc(C(F)(F)F)c1)c1cnccc1-c1ccccc1Cl     144 nM
3  O=C(c1cc(C(F)(F)F)cc(C(F)(F)F)c1)N(CC(F)F)c1cnccc1-c1ccccc1Cl      88 nM

Continue with the molecule presented below.
Would you mind telling me what EC50 value was observed for Cc1cc(C(=O)N(C)c2cnccc2-c2ccccc2C)cc(C(F)(F)F)c1 ?
70 nM

* * *

- systemName: human GPBAR1 receptor (Homo sapiens (Human))
- method: functional cAMP assay in CHO-dhfr(minus) cells expressing human GPBAR1 receptors
- assayConditions: CHO-dhfr(minus) cells expressing human GPBAR1, 30 min at 30° C.
endpoint: pEC50
Answers are plain numbers, as −log10 of the molar value.

// below: answered molecules
> print(dat)
                                  structure                                systemname  endpoint  testvalue
1  CS(=O)(=O)CCN(C(=O)c1cc(C(F)(F)F)cc(S(C)(=O)=O)c1)c1cnccc1-c1ccccc1Cl  human GPBAR1 receptor (Homo sapiens (Human))     pEC50       5.83
2  COC(=O)CN(C(=O)c1cc(C(F)(F)F)cc(C(F)(F)F)c1)c1cnccc1-c1ccccc1Cl  human GPBAR1 receptor (Homo sapiens (Human))     pEC50       7.18

Continue with the molecule presented below.
Would you mind telling me what pEC50 value was observed for CN(C(=O)c1cc(C(F)(F)F)cc(C(F)(F)F)c1)c1cnccc1-c1ccccc1N ?
6.74
